target or system: endothelial lipase (Homo sapiens, UniProt Q9Y5X9)
Sequence (Q9Y5X9 21-500): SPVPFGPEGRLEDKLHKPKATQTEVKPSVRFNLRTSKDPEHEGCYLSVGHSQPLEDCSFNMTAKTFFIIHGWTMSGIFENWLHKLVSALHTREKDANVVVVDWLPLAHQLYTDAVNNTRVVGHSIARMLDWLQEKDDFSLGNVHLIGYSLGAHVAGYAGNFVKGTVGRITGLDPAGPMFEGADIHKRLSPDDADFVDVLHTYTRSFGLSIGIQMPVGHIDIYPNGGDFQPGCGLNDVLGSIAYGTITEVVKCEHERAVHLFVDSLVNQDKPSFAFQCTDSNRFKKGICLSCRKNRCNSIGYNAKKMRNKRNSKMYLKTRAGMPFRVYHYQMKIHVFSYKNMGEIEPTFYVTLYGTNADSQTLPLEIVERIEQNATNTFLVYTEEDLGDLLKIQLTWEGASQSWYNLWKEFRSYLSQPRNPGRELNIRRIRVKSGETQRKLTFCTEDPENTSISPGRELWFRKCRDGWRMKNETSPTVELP
assay summary: Endothelial lipase inhibiting activity of boronic acids
Format: biochemical
conditions: aromatic boronic acids; endothelial lipase
readout type: IC50 (µM)

>  <compound structure>
CC(=O)c1ccc(B(O)O)cc1

>  <endpoint result>
26

$$$$

1: CCc1ccc(B(O)O)cc1
2: Cc1ccc(B(O)O)cc1
Which entry shows the lesser value of IC50 here, 1 or 2 ? Reply with the label of the item you choose. 1

Reference for the values: patent US20090209492A1
